Target: Jak2 (UniProt O60674)
Sequence (O60674 whole entry, looked up): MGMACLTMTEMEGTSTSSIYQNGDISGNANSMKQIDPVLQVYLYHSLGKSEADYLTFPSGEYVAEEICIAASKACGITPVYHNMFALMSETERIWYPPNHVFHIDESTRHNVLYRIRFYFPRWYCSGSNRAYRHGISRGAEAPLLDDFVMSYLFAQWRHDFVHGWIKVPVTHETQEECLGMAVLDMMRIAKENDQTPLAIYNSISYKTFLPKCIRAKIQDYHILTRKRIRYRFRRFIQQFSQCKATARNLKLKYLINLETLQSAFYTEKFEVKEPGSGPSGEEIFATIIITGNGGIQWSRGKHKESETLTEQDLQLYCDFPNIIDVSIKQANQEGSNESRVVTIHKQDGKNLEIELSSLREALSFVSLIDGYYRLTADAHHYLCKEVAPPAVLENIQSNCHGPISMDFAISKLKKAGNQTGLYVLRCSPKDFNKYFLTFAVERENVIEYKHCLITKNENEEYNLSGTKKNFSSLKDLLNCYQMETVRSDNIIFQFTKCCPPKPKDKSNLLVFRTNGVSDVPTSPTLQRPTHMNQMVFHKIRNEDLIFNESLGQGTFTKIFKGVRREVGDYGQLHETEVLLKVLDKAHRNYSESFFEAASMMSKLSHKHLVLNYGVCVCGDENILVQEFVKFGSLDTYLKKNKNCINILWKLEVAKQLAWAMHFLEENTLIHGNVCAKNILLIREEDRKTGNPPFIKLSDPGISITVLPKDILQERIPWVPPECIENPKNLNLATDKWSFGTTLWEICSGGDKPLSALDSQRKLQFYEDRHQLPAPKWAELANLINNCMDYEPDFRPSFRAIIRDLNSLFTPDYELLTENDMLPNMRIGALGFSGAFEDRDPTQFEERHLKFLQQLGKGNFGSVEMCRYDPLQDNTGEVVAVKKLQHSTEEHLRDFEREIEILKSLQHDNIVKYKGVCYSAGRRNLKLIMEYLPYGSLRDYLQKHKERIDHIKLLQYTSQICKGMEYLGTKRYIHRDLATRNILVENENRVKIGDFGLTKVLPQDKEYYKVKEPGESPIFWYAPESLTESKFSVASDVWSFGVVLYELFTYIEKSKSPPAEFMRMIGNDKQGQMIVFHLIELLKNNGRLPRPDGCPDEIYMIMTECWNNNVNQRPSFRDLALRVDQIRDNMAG
Test: phosphorylation enrichment, bacterial display (enrichment ratio); higher = better substrate or ligand; peptides without Tyr show the background;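 note: 11-residue human phosphosite peptides and single-mutation variants displayed on the E. coli surface, counted by deep sequencing, each peptide's frequency after selection divided by its frequency in the unselected input library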;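 note: frequency after pTyr selection over input frequency; kinase dosed for 20-30% of maximal phosphorylation in three min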
Observable: phosphorylation enrichment
Respond with the number and no other words.

For orientation, consider the following solved cases.
Just so you know, measured phosphorylation enrichment for RNAAEYLLSSG [ABL1_Y139] came out at 0.667

Just so you know, measured phosphorylation enrichment for FAKSVYWENTL [NUP107_Y296_YF] came out at 0.987

Just so you know, measured phosphorylation enrichment for PADCRYYAFPQ [GAMT_Y222] came out at 6.5

Just so you know, measured phosphorylation enrichment for SDFSSYARTSI [TERT_Y949_YF] came out at 0.798

More entries:
Just so you know, measured phosphorylation enrichment for QNVADYMRCLM [RPL5_Y207_Y210C] came out at 1.37

Just so you know, measured phosphorylation enrichment for KLVQLYDVCTK [BTK_Y461_G462D] came out at 0.79

Just so you know, measured phosphorylation enrichment for QNAGDYFDLFG [PTPN11_Y62_T59A_YF] came out at 13.4

Just so you know, measured phosphorylation enrichment for TLQSMYGCDVG [HLA-B_Y123] came out at 0.843

Just so you know, measured phosphorylation enrichment for RALRHYYKLNI [ETV6_Y401] came out at 0.504

Just so you know, measured phosphorylation enrichment for KGVDRYNPENL [EIF3K_Y21_I18V] came out at 0.428
